- Test system: Plasmodium falciparum
- runDescription: GSK_TCMDC: Inhibition of Plasmodium falciparum 3D7 in whole erythrocytes, using parasite LDH activity as an index of growth.
- Assay type: functional, organism-based
- studyConditions: Plasmodium falciparum, 3D7
Item-by-item account of XC50

- testSmiles: "CCCOc1ccc(CCNCCCCNCCc2ccc(OCCC)c3ccccc23)c2ccccc12"
  XC50 (nM): 917
- testSmiles: "COc1ccc(CCNCCCCCCNCCc2ccc(Cl)c(Cl)c2)cc1OC"
  XC50 (nM): 926
- testSmiles: "CN(C(=O)Nc1ccc(F)cc1)C1CCN(CCCCCNC(=O)/C=C/c2ccc(Cl)c(Cl)c2)CC1"
  XC50 (nM): 886
- testSmiles: "NS(=O)(=O)c1cccc(Br)c1"
  XC50 (nM): 888
- testSmiles: "CCc1cc(N2CCN(c3ccccc3F)CC2)nc(SCc2ccc(C(=O)NC3CC3)o2)n1"
  XC50 (nM): 892
- testSmiles: "Oc1ccc(CCNc2nc(NCCCOc3ccccc3-c3cccc(C(F)(F)F)c3)nc(N3CCNCC3)n2)cc1"
  XC50 (nM): 882

* * *

Item-by-item account of XC50
- Test system: Plasmodium falciparum
- runDescription: GSK_TCMDC: Inhibition of Plasmodium falciparum 3D7 in whole erythrocytes, using parasite LDH activity as an index of growth.
- Assay type: functional, organism-based
- studyConditions: Plasmodium falciparum, 3D7
experimentalEndpoint: XC50 (nM)

- compound: "O=C(Nc1ccc(Cl)cc1)Nc1nc2cc([N+](=O)[O-])ccc2[nH]1"
  reading: 801
- compound: "CCOC(=O)CCCOc1c(OC)cc(Cc2cnc(N)nc2N)cc1OC"
  reading: 778
- compound: "NCC1CCCN1Cc1cccc(-c2cccc(-c3nc4cc(F)ccc4[nH]3)c2)c1 (stereo not drawn)"
  reading: 813

* * *

- System: Plasmodium falciparum
- runDescription: GSK_TCMDC: Inhibition of Plasmodium falciparum 3D7 in whole erythrocytes, using parasite LDH activity as an index of growth.
- Format: functional, organism-based
- studyConditions: Plasmodium falciparum, 3D7
experimentalEndpoint: XC50 (nM)

- compound: "Cc1ccnc(Nc2nc(-c3ccccn3)cs2)c1"
  reading: 998
- compound: "N=C(NCC1CC1c1ccccc1)c1cccc(C(=N)NCC2CC2c2ccccc2)n1 (configuration not stated)"
  reading: 1760
- compound: "CC(C)c1cn2c3c(cc(C(=O)N[C@@H](Cc4ccccc4)[C@H](O)CNC4CCOCC4)cc13)N(C)S(=O)(=O)CC2"
  reading: 54.5
- compound: "O=C(Cc1cc(=O)oc2cc(O)ccc12)N1CCC(CN2CCC(c3c[nH]c4ccccc34)CC2)CC1"
  reading: 870
- compound: "CC(C)CN1C(=O)C(c2ccc(F)c(F)c2)=C(O)C1c1ccccc1 (configuration not stated)"
  reading: 185
- compound: "Cc1cnc(Nc2cccnc2)nc1Nc1ccccc1C(=O)NC(C)C"
  reading: 1200
- compound: "CCCCN1CCN(CCCNc2c3ccccc3nc3ccccc23)CC1"
  reading: 512

* * *

- Tested on: Plasmodium falciparum
- runDescription: GSK_TCMDC: Inhibition of Plasmodium falciparum 3D7 in whole erythrocytes, using parasite LDH activity as an index of growth.
- Format: functional, organism-based
- studyConditions: Plasmodium falciparum, 3D7
experimentalEndpoint: XC50 (nM)

- molecule: "Cc1ccc(NC(=O)c2cccc(CN3CCCN(Cc4cccc(O)c4)CC3)c2)cc1C"
  reading: 1040
- molecule: "Brc1cc(Br)c2c(c1)C(NCCCNc1nc3ncccc3[nH]1)CCN2 (stereo not drawn)"
  reading: 595
- molecule: "O=C(NCCCCCN1CCCN(C(=O)Nc2ccc(Cl)c(C(F)(F)F)c2)CC1)C1CC1c1ccc(Cl)c(Cl)c1 (stereo not drawn)"
  reading: 852
